Tested on: oat, wild (wild oat, Avena fatua)
Experiment: Test A preemergence soil spray, visual injury rating 0-100
Type: in vivo
Details: 31 g ai/ha, 10 days, 0 = no effect, 100 = complete control
measurement.kind: Oat, Wild plant response rating (0-100)

>>> value_reported("CC1(C(=O)NC2CCC(C(=O)O)C2)CN(c2cc(F)cc(F)c2)C(=O)O1 (centres unmarked) [Compound 9]")
0
>>> value_reported("CONC(=O)C1CC(NC(=O)C2(C)CN(c3cc(F)cc(F)c3)C(=O)O2)CO1 (centres unmarked) [Compound 39]")
0
>>> value_reported("COC(=O)C1=CCC(NC(=O)C2(C)CN(c3cc(F)cc(F)c3)C(=O)O2)C1 (centres unmarked) [Compound 21]")
60
>>> value_reported("CC1(C(=O)NC2C=CC(C(=O)NS(=O)(=O)C(C)(C)C)C2)CN(c2cc(F)cc(F)c2)C(=O)O1 (centres unmarked) [Compound 80]")
0
>>> value_reported("CC1(C(=O)NC2CC=C(C(=O)OCC(F)(F)F)C2)CN(c2cc(F)cc(F)c2)C(=O)O1 (centres unmarked) [Compound 1]")
60
>>> value_reported("CC(C)COC(=O)C1C=CC(NC(=O)C2(C)CN(c3cc(F)cc(F)c3)C(=O)O2)C1 (centres unmarked) [Compound 56]")
90
>>> value_reported("CC(C)OC(=O)C1=CCC(NC(=O)C2(C)CN(c3cc(Cl)cc(Cl)c3)C(=O)O2)C1 (centres unmarked) [Compound 70]")
0
>>> value_reported("COC(=O)C1=CCC(NC(=O)C2(C)CN(c3cc(F)cc(F)c3)C(=O)O2)C1 (single isomer, unassigned) [Compound 20]")
0
>>> value_reported("CC1(C(=O)NC2CCC(C(=O)O)C2)CN(c2cc(F)cc(Cl)c2)C(=O)O1 (centres unmarked) [Compound 7]")
20
>>> value_reported("CC1(C(=O)NC2CC=C(C(=O)NS(=O)(=O)C3CC3)C2)CN(c2cc(Cl)cc(Cl)c2)C(=O)O1 (centres unmarked) [Compound 75]")
0
>>> value_reported("CSCCOC(=O)C1C=CC(NC(=O)C2(C)CN(c3cc(Cl)cc(Cl)c3)C(=O)O2)C1 (centres unmarked) [Compound 69]")
0
>>> value_reported("CC(C)COC(=O)C1=CCC(NC(=O)C2(C)CN(c3cc(F)cc(F)c3)C(=O)O2)C1 (centres unmarked) [Compound 16]")
0
>>> value_reported("COC(=O)C1CCC(NC(=O)C2(C)CN(c3cc(F)cc(F)c3)C(=O)O2)C1 (centres unmarked) [Compounds 10]")
50
>>> value_reported("CC1(C(=O)NC2C=CC(C(=O)ON=Cc3ccccc3)C2)CN(c2cc(F)cc(F)c2)C(=O)O1 (centres unmarked) [Compound 68]")
60
>>> value_reported("CC1(C(=O)NC2C=CC(C(=O)O)C2)CN(c2cc(Cl)cc(Cl)c2)C(=O)O1 (centres unmarked) [Compound 62]")
40
>>> value_reported("CSCCOC(=O)C1=CCC(NC(=O)C2(C)CN(c3cc(F)cc(F)c3)C(=O)O2)C1 (centres unmarked) [Compound 22]")
0
>>> value_reported("CC1(C(=O)NC2C=CC(C(=O)OCC(F)(F)F)C2)CN(c2cc(F)cc(F)c2)C(=O)O1 (centres unmarked) [Compound 55]")
60
>>> value_reported("CCCS(=O)(=O)OC(=O)C1C=CC(NC(=O)C2(C)CN(c3cc(Cl)cc(Cl)c3)C(=O)O2)C1 (mixture of isomers) [Compound 79]")
20
>>> value_reported("CC(C)OC(=O)C1C=CC(NC(=O)C2(C)CN(c3cc(F)cc(Cl)c3)C(=O)O2)C1 (centres unmarked) [Compound 4]")
50
>>> value_reported("CONC(=O)C1CC(NC(=O)C2(C)CN(c3cc(F)cc(F)c3)C(=O)O2)CO1 (centres unmarked) [Compound 40]")
50
